assay: Adsorption and release of various antibiotics on ultra-stable zeolite Y (USY); type: physicochemical; conditions: ultra-stable zeolite Y (USY); amount calculated
Please use Fulfilled whenever Amount adsorbed antibiotic/mg zeolite is not below 0.1 mg, and Not fulfilled whenever it is.

Query: API: above_or_equal(metric=Amount adsorbed antibiotic/mg zeolite, cutoff=0.1 mg) for item CN(C)[C@@H]1C(=O)C(C(N)=O)=C(O)[C@@]2(O)C(=O)C3=C(O)c4c(O)cccc4[C@@](C)(O)[C@H]3C[C@@H]12
Result: Not fulfilled

Query: Form field: Amount adsorbed antibiotic/mg zeolite at least 0.1 mg? Entry: CC(=O)OCC1=C(C(=O)O)N2C(=O)[C@@H](NC(=O)Cc3cccs3)[C@H]2SC1
Result: Fulfilled

Query: # check: Amount adsorbed antibiotic/mg zeolite of [H]/N=C(/N)N[C@H]1[C@H](O)[C@@H](O)[C@H](O[C@@H]2O[C@@H](C)[C@](O)(C=O)[C@H]2O[C@@H]2O[C@@H](CO)[C@H](O)[C@@H](O)[C@@H]2NC)[C@@H](N/C(N)=N\[H])[C@@H]1O is greater than or equal to 0.1 mg
Result: Fulfilled

Query: Textbook exercise: given the entry O=C(N[C@H](CO)[C@H](O)c1ccc([N+](=O)[O-])cc1)C(Cl)Cl , state whether its Amount adsorbed antibiotic/mg zeolite is greater than or equal to 0.1 mg.
Result: Fulfilled

Query: Has CC1(C)S[C@@H]2[C@H](NC(=O)[C@H](N)c3ccccc3)C(=O)N2[C@H]1C(=O)O a recorded Amount adsorbed antibiotic/mg zeolite greater than or equal to 0.1 mg?
Result: Fulfilled
